Tested on: r-AppA
Format: biochemical, Yersinia intermedia
Conditions: 1 mM, pH 4.5
parameter.measured: Enzyme activity of r-AppA (control = 100)
Numbers only.

Solved entries:
compound	reading
[Zn+2] [Zn]	44
[Co+2] [Co]	93
[K+] [K]	99
O=C(O)CN(CCN(CC(=O)O)CC(=O)O)CC(=O)O [EDTA]	101
[Ni+2] [Ni]	98
[Li+] [Li]	95

I need Enzyme activity of r-AppA (control = 100) for every entry listed below, if you could help.
1. [Na+] [Na]
2. [Mn+2] [Mn]
3. [Ag+] [Ag]
4. [Cu+2] [Cu]
5. CCCCCCCCCCCCOS(=O)(=O)[O-].[Na+] [SDS]

Result block:
1: 95; 2: 104; 3: 84; 4: 61; 5: 9

Dear reader, for each entry below, please note its Enzyme activity of r-AppA (control = 100).
1. [Fe+2] [Fe]
2. [Ca+2] [Ca]
3. [Mg+2] [Mg]

Result block:
47
98
94
